Listed here: items and their measured log10 IC50.
- study.system: UniProt:P15121
- assay.remarks: In vitro inhibition of recombinant human aldose reductase expressed in Escherichia coli
Transform log10 | Measure IC50 | Unit nM

# count of solved cases: 5
> print(dat)
                                   compound  assay.endpoint  value
1  O=C(O)Cn1cc(CCc2nc3c(F)c(F)cc(F)c3s2)c2ccccc21      log10 IC50   0.90
2   O=C(O)Cn1cc(Cc2nc3c(F)cccc3s2)c2ccccc21      log10 IC50   1.53
3  CC(C(=O)O)n1cc(Cc2nc3c(F)c(F)cc(F)c3s2)c2ccccc21 (stereo not drawn)      log10 IC50   2.21
4  O=C(O)Cn1cc(C(=O)c2nc3c(F)c(F)cc(F)c3s2)c2ccccc21      log10 IC50   3.20
5  O=C(O)Cn1cc(Cc2nc3c(F)cc(F)cc3s2)c2ccccc21      log10 IC50   2.84

Query: Check the records and state log10 IC50 for Cc1ccc2c(Cc3nc4c(F)c(F)cc(F)c4s3)cn(CC(=O)O)c2c1
Response: 1.00

Query: State its log10 IC50 for this compound: O=C(O)Cn1cc(Cc2nc3ccc(F)cc3s2)c2ccccc21
Response: 3.00

Query: Given the compound O=C(O)Cn1cc(Cc2nc3cc(F)c(F)cc3s2)c2ccccc21 , write its reported log10 IC50.
Response: 2.75

###

- assay.remarks: Maximum plasma concentration was determined in nonfasted rats after p.o. doses of 6 mg/kg/day
- Type: ADME, organism-based
- Set-up: dose 6 mg/kg/day, route oral
- measurement.context: rat, in vivo, po
assay.endpoint: Cmax (µg equiv/mL)
Field format: number, assumed µg equiv/mL, no unit text.

Query: Supply reported Cmax belonging to this compound: O=C(O)Cn1cc(Cc2nc3c(F)c(F)cc(F)c3s2)c2ccccc21
Response: 6.09

###

- assay.remarks: Half-life was determined in fasted rats after p.o. doses of 6 mg/kg/day
- Type: ADME, organism-based
- Set-up: route oral
- measurement.context: rat, in vivo, po
assay.endpoint: half-life

Query: Report measured half-life; entry is O=C(O)Cn1cc(Cc2nc3c(F)c(F)cc(F)c3s2)c2ccccc21
Response: 5.61 h

###

- assay.remarks: Time require to reach maximum plasma concentration was determined in fasted rats after i.v. doses of 10 mg/kg/day
- Assay type: ADME, organism-based
- Set-up: route intravenous
- measurement.context: rat, iv
assay.endpoint: Tmax (min)
Lab book: enter the figure in min, no units written.

Query: Fill in Tmax for record O=C(O)Cn1cc(Cc2nc3c(F)c(F)cc(F)c3s2)c2ccccc21 [LIDORESTAT]
Response: 4.8

###

- study.system: Aldo-keto reductase family 1 member A1 (Homo sapiens, UniProt P14550)
- Sequence (P14550 whole entry): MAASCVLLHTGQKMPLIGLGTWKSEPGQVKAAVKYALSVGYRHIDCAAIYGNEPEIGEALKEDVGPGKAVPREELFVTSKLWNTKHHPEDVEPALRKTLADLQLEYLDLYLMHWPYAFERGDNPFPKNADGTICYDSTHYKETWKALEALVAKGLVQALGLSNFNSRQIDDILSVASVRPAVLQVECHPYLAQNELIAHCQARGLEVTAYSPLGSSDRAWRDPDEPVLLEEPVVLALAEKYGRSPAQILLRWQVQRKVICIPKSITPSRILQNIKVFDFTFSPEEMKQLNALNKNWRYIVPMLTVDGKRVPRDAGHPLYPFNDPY
- assay.remarks: In vitro inhibition of recombinant human aldehyde reductase
assay.endpoint: pIC50
The meaning of pIC50 here: minus log10 of the concentration in molar units.

Recorded results for 4 molecules are shown here.
> print(dat)
                        structure.as.smiles  value
1  O=C(O)Cn1cc(Cc2nc3cc(C(F)(F)F)ccc3s2)c2ccc(Br)cc21   5.47
2  O=C(O)Cn1cc(Cc2nc3c(F)c(F)cc(F)c3s2)c2ccc(N3CCOCC3)cc21   4.36
3   O=C(O)Cn1cc(Cc2nc3cccc(F)c3s2)c2ccccc21   4.74
4  Cc1ccc2c(c1)c(Cc1nc3cc(C(F)(F)F)ccc3s1)cn2CC(=O)O   4.99

# ---- query molecule ----
Query: Return pIC50 for the following molecule: O=C(O)Cn1cc(Cc2nc3cc(F)ccc3s2)c2ccccc21
Response: 5.19

###

- assay.remarks: Total body clearance was determined in fasted rats after i.v. doses of 10 mg/kg/day
- Assay type: ADME, organism-based
- Design: route intravenous
- measurement.context: rat, in vivo, iv, read-out: ClT
assay.endpoint: clearance (mL/min/kg)
Kindly answer with a numeric value in mL/min/kg, unit omitted.

Query: Output measured clearance for this item: O=C(O)Cn1cc(Cc2nc3c(F)c(F)cc(F)c3s2)c2ccccc21 [LIDORESTAT]
Response: 1.7

###

- assay.remarks: Total body clearance was determined in fasted rats after p.o. doses of 6 mg/kg/day
- Type: ADME, organism-based
- Design: route oral
- measurement.context: rat, in vivo, po, read-out: ClT
assay.endpoint: CL/F
Kindly format the answer as number then unit.

Query: Give me measured CL/F, please, for this compound: O=C(O)Cn1cc(Cc2nc3c(F)c(F)cc(F)c3s2)c2ccccc21
Response: 2.24 mL/min/kg

###

- assay.remarks: Time require to reach maximum plasma concentration was determined in fasted rats after p.o. doses of 6 mg/kg/day
- Assay type: ADME, organism-based
- Design: route oral
- measurement.context: rat, po
assay.endpoint: Tmax (h)
Report the value in h with no unit label.

Query: Item O=C(O)Cn1cc(Cc2nc3c(F)c(F)cc(F)c3s2)c2ccccc21 : provide Tmax
Response: 3.5

###

- assay.remarks: Volume of distribution was determined in fasted rats after i.v. doses of 10 mg/kg/day
- Assay type: ADME, organism-based
- Parameters: route intravenous
- measurement.context: rat, in vivo, iv
assay.endpoint: Vd (L/kg)
Report the value in L/kg with no unit label.

Query: Determine its reported Vd: O=C(O)Cn1cc(Cc2nc3c(F)c(F)cc(F)c3s2)c2ccccc21 [LIDORESTAT]
Response: 0.694

###

- assay.remarks: Half-life was determined in nonfasted rats after p.o. doses of 6 mg/kg/day
- Format: ADME, organism-based
- Design: route oral
- measurement.context: rat, in vivo, po
assay.endpoint: half-life (h)
Unit h implied. Number only.

Query: Entry O=C(O)Cn1cc(Cc2nc3c(F)c(F)cc(F)c3s2)c2ccccc21 needs its half-life filled in; supply it.
Response: 5.18

###

- assay.remarks: Total body clearance was determined in nonfasted rats after p.o. doses of 6 mg/kg/day
- Type: ADME, organism-based
- Parameters: route oral
- measurement.context: rat, in vivo, po, read-out: ClT
assay.endpoint: CL/F (mL/min/kg)
Number only, in mL/min/kg; omit the unit.

Query: Given O=C(O)Cn1cc(Cc2nc3c(F)c(F)cc(F)c3s2)c2ccccc21 [LIDORESTAT] , respond with its CL/F.
Response: 1.37
